test_system: UniProt:P81908
Sequence (P81908 whole entry): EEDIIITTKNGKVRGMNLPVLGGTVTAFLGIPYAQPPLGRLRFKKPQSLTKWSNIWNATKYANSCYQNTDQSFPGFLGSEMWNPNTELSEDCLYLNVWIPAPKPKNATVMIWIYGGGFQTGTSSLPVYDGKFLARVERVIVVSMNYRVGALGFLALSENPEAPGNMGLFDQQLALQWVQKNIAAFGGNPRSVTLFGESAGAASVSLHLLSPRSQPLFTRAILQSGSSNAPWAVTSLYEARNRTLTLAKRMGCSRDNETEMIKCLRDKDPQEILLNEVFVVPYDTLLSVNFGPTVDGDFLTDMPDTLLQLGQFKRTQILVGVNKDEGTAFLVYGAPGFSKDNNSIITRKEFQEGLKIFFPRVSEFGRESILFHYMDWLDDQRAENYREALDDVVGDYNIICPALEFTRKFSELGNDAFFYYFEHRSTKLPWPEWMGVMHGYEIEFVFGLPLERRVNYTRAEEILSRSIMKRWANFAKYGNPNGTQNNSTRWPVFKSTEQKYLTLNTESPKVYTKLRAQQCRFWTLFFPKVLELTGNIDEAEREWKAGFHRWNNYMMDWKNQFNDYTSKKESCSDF
protocol_details: Inhibition of equine serum BuChE by Ellman's method
metric: IC50 (µM)
Report only the number, with the unit µM understood.

Just so you know, measured IC50 for COc1ccc2cc3[n+](cc2c1OCCC(=O)Nc1ccc([N+](=O)[O-])cc1)CCc1cc2c(cc1-3)OCO2 came out at 5.53

* * *

test_system: Acetylcholinesterase (Electrophorus electricus)
Sequence (O42275 whole entry): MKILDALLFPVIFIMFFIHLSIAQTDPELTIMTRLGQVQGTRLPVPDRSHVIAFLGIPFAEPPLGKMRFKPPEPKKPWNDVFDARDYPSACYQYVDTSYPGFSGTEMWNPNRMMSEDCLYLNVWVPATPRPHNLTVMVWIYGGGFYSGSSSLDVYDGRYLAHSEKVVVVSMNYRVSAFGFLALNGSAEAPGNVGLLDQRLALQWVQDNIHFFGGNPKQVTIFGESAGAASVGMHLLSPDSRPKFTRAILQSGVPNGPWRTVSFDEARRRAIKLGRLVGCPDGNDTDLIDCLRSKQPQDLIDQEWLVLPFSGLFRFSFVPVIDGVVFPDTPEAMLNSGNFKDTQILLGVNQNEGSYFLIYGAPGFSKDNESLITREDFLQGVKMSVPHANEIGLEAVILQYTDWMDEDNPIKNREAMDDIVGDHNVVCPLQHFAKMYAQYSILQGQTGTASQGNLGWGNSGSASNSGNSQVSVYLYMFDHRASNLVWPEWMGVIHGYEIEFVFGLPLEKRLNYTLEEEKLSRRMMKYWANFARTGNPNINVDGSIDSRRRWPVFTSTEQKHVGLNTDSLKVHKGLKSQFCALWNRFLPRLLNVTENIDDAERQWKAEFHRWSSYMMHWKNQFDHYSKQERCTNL
# binning rule on IC50: Low = under 300 nM, Medium = from 300 nM up to 900 nM, High = 900 nM and over

Dear colleague, I would appreciate it if you could identify the bin for COc1ccc(NC(=O)CCOc2c(OC)ccc3cc4[n+](cc23)CCc2cc3c(cc2-4)OCO3)cc1 and reply at your convenience.
High

Dear colleague, I would appreciate it if you could identify the bin for COc1ccc2cc3[n+](cc2c1OCCCOc1ccc(Br)cc1)CCc1cc2c(cc1-3)OCO2 and reply at your convenience.
Low

Dear colleague, I would appreciate it if you could identify the bin for COc1ccc(OCCCOc2c(OC)ccc3cc4[n+](cc23)CCc2cc3c(cc2-4)OCO3)cc1 and reply at your convenience.
High

Dear colleague, I would appreciate it if you could identify the bin for COc1ccc2cc3[n+](cc2c1OCCCOc1ccc([N+](=O)[O-])cc1)CCc1cc2c(cc1-3)OCO2 and reply at your convenience.
Medium

Dear colleague, I would appreciate it if you could identify the bin for COc1ccc2cc3[n+](cc2c1OCCC(=O)Nc1ccc([N+](=O)[O-])cc1)CCc1cc2c(cc1-3)OCO2 and reply at your convenience.
High

Dear colleague, I would appreciate it if you could identify the bin for COc1ccc2cc3[n+](cc2c1OCCC(=O)Nc1ccccc1)CCc1cc2c(cc1-3)OCO2 and reply at your convenience.
Medium

Dear colleague, I would appreciate it if you could identify the bin for COc1ccc2cc3[n+](cc2c1OCCOc1c(OC)ccc2cc4[n+](cc12)CCc1cc2c(cc1-4)OCO2)CCc1cc2c(cc1-3)OCO2 and reply at your convenience.
Medium

Dear colleague, I would appreciate it if you could identify the bin for COc1ccc2cc3[n+](cc2c1OCCCOc1c(OC)ccc2cc4[n+](cc12)CCc1cc2c(cc1-4)OCO2)CCc1cc2c(cc1-3)OCO2 and reply at your convenience.
Low

Dear colleague, I would appreciate it if you could identify the bin for COc1ccc2cc3[n+](cc2c1OCCCNc1ccccc1)CCc1cc2c(cc1-3)OCO2 and reply at your convenience.
Low

Dear colleague, I would appreciate it if you could identify the bin for COc1ccc2cc3[n+](cc2c1OCCCCOc1ccc2ccccc2c1)CCc1cc2c(cc1-3)OCO2 and reply at your convenience.
High

Dear colleague, I would appreciate it if you could identify the bin for COc1ccc2cc3[n+](cc2c1OCC[n+]1ccccc1)CCc1cc2c(cc1-3)OCO2 and reply at your convenience.
Low

Dear colleague, I would appreciate it if you could identify the bin for COc1ccc2cc3[n+](cc2c1OCCC[n+]1cccc(C)c1)CCc1cc2c(cc1-3)OCO2 and reply at your convenience.
Low

Dear colleague, I would appreciate it if you could identify the bin for COc1ccc2cc3[n+](cc2c1OCCC(=O)Nc1ccc(C)cc1)CCc1cc2c(cc1-3)OCO2 and reply at your convenience.
High

Dear colleague, I would appreciate it if you could identify the bin for COc1ccc2cc3[n+](cc2c1OCCCCOc1ccc([N+](=O)[O-])cc1)CCc1cc2c(cc1-3)OCO2 and reply at your convenience.
Medium

Dear colleague, I would appreciate it if you could identify the bin for COc1ccc2cc3[n+](cc2c1OCCCCOc1ccccn1)CCc1cc2c(cc1-3)OCO2 and reply at your convenience.
Medium

Dear colleague, I would appreciate it if you could identify the bin for COc1ccc2cc3[n+](cc2c1OCCCCSc1ccc2ccccc2c1)CCc1cc2c(cc1-3)OCO2 and reply at your convenience.
High

Dear colleague, I would appreciate it if you could identify the bin for COc1ccc2cc3[n+](cc2c1OCCC[n+]1ccccc1)CCc1cc2c(cc1-3)OCO2 and reply at your convenience.
Medium

Dear colleague, I would appreciate it if you could identify the bin for COc1ccc2cc3[n+](cc2c1OCCCOc1ccc(Cl)cc1)CCc1cc2c(cc1-3)OCO2 and reply at your convenience.
Medium

Dear colleague, I would appreciate it if you could identify the bin for COc1ccc2cc3[n+](cc2c1OCCCCOc1c(OC)ccc2cc4[n+](cc12)CCc1cc2c(cc1-4)OCO2)CCc1cc2c(cc1-3)OCO2 and reply at your convenience.
Low
